Examples of compounds with documented efflux ratio at 2 h, 10 μM follow.
experiment: in vitro; conditions: human, Caco-2, Mean (B-A/A-B) (Efflux Ratio)
When you answer, write just the number.

For orientation, consider the following solved cases.
CNC(=C[N+](=O)[O-])NCCSCc1ccc(CN(C)C)o1 :: 4.06
CC(=O)CC(c1ccccc1)c1c(O)c2ccccc2oc1=O (stereo not drawn) :: 0.726

As a next step, examine the compound that follows.
INPUT: Quick one: efflux ratio at 2 h, 10 μM of Cn1cnc2c(F)c(Nc3ccc(Br)cc3Cl)c(C(=O)NOCCO)cc21 [Reference-1, Selumetinib] ?
OUTPUT: 3.19
